- Measured On: UniProt Q14BI2
- Run Description: Live-cell FRET, SNAP-m2 (VFT domain) inter-subunit sensor in HEK293T cells;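 further: apparent FRET efficiency from whole-membrane ROIs of single cells, corrected for donor bleed-through and background, ΔFRET as treatment minus pretreatment signal, recorded at room temperature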
- Condition Parameters: Mean half-maximum effective concentration (EC50), SNAP-m2 sensor, orthosteric agonist alone; nM for LY379268 (footnote)
Assay Endpoint: EC50
Don't forget the unit after the number, please.

Q) What EC50 appears in the records for this compound with UniProt Q14BI2? `N[C@@]1(C(=O)O)CO[C@H]2[C@H](C(=O)O)[C@H]21`
A) 30.6 nM

---

- Measured On: mGluR2 (Mus musculus, UniProt Q14BI2, INS715F)
- Sequence (Q14BI2 with tags, fused parts or gaps INS715F): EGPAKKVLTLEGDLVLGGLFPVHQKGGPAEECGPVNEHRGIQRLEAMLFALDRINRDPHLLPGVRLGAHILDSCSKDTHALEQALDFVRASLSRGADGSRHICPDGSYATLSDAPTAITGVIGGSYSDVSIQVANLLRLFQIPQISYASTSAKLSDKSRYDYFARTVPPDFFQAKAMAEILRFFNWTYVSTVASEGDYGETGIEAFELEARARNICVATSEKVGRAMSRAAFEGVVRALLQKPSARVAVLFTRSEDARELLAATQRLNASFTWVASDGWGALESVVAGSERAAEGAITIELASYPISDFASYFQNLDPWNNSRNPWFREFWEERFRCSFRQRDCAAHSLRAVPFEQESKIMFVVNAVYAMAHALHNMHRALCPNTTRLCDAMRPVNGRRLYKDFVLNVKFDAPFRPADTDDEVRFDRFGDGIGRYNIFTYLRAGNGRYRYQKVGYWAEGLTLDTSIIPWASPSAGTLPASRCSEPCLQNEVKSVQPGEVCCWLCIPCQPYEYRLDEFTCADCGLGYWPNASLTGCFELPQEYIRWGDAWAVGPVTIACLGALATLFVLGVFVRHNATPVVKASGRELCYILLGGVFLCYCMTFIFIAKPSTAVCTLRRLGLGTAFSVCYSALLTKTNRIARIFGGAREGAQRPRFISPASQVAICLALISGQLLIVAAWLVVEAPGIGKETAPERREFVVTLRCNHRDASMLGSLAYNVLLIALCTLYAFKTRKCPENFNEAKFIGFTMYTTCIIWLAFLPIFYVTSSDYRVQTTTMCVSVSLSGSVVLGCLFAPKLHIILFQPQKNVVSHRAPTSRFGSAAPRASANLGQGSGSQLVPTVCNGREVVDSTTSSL
- Run Description: Live-cell FRET, azi-ECL2 (7TM domain, extracellular loop 2) sensor in HEK293T cells;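 further: Cy3/Cy5 click-labeled sensor, whole-membrane ROIs per cell, apparent FRET after bleed-through correction, ΔFRET as treatment minus pre-treatment signal, at room temperature, at least three biological replicates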
- Condition Parameters: Mean half-maximum effective concentration (EC50), azi-ECL2 sensor, orthosteric agonist alone; nM for LY379268 (footnote)
Assay Endpoint: EC50 (nM)
The figure you give is taken to be in nM; do not add the unit.

Q) Suppose we examine the compound `N[C@@]1(C(=O)O)CO[C@H]2[C@H](C(=O)O)[C@H]21` ; what EC50 value has been reported?
A) 10.2
